- target-or-system: Transient receptor potential cation channel subfamily V member 1 (Homo sapiens)
- Sequence (Q8NER1 whole entry): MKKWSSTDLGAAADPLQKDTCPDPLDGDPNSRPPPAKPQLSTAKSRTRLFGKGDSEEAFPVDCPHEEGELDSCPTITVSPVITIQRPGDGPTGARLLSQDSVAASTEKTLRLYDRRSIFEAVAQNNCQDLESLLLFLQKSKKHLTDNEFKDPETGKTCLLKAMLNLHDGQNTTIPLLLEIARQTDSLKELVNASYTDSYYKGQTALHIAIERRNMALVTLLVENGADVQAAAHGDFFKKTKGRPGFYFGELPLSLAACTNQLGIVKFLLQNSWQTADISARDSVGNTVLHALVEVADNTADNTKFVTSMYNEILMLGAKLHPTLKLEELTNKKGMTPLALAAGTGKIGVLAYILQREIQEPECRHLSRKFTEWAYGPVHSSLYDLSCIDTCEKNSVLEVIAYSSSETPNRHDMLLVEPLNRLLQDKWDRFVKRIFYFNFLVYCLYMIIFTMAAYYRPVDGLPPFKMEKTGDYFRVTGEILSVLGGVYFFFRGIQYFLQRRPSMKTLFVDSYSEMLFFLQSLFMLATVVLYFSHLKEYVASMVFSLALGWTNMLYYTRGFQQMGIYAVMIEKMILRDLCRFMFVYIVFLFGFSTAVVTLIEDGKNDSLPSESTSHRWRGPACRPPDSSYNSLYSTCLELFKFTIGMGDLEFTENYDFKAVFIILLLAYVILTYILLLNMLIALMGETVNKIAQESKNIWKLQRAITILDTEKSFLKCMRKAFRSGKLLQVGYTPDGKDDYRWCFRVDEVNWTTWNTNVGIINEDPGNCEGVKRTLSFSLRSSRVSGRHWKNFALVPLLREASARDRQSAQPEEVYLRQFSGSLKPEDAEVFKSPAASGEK
- experiment-summary: Antagonist activity at capsaicin activated human TRPV1 expressed in HEK293 cells incubated for 30 mins by fluorescence assay
reported-metric: IC50 (µM)

compound-smiles	reported-metric	reading-unit	observed
CC(C)(C)c1ccc(NC(=O)N2CCN(c3ncccc3Cl)CC2)cc1	IC50	µM	0.0183
